Cited source: ChEMBL document CHEMBL3046506

System: Pyricularia oryzae
Assay: Antifungal activity against wild type Magnaporthe oryzae Hoku-1 in rice seedlings assessed as preventive value of rice blast at 5 ug/ml systemic application at 22 to 30 degC by pot test
Type: functional
measurementKind: Activity (%)
Answers are plain numbers, in %.

Record Activity per entry; entries follow.
1. CCC1(C(=O)NC(C)C2CCCC2)C(C)C1(Cl)Cl (stereo unspecified)
2. CCC1(C(=O)NCCCc2ccc(Cl)cc2)C(C)C1(Cl)Cl (stereo unspecified)
3. CCC1(C(=O)NCCc2ccc(F)cc2F)C(C)C1(Cl)Cl (stereo unspecified)
4. CC1(C)C(Cl)(Cl)C1(C)C(=O)NCCc1csc(Cl)c1 (stereo unspecified)

1: 40; 2: 40; 3: 40; 4: 40

Record Activity per entry; entries follow.
1. CCC1(C(=O)NCCc2ccc(Cl)s2)C(C)C1(Cl)Cl (stereo unspecified)
2. CC(C)(C)C(Br)C(=O)NCCc1csc(Cl)c1 (stereo unspecified)

[40, 40]
